experiment: Pharmacokinetic profile after sc injection
Assay type: in vivo
applied_conditions: mouse, plasma; C57BL/6 male mice, 10 mg/kg sc, low % deoxycholate formulation
Protocol: FIG. 6A: Pharmacokinetic profile for C57BL/6 male mice receiving a 10 mg/kg sc injection of 512 in a low % deoxycholate formulation. Because the side effects of Cremophor are undesirable for an MCM candidate, alternative formulations are being tested for further development of 512 for the lung DEARE indication.
metric: Cmax (ng/mL)
Provide the reading as a plain figure in ng/mL.

// field: Cmax; key: `O=[N+]([O-])c1ccc(S(=O)(=O)N2CCN(c3ccccc3)CC2)cc1` ; value = 132
